- test_target: CDK2/Cyclin E1 (Homo sapiens, UniProt P24941)
- assay_overview: CDK2/Cyclin E1 Caliper LabChip EZ Reader mobility shift assay
- Format: biochemical
- Set-up: purchased Eurofins 14-475
- condition_notes: read-out: Caliper Assay (CDK2/CCNE1): IC50
Field: IC50. Provide a value for each of the molecules that follow.

>>> val("CNC(=O)C(NC(=O)[C@@H]1CN(C(=O)c2cncs2)CC12CN(C(=O)[C@H]1CC1(C)C)C2)c1cccc(N2CCCCC2)n1 (stereo partly drawn) [I-432]")
"100 to 1000 nM"

For each listed entry, give its IC50.
1. C[C@@H](OCc1ccccc1)[C@H](NC(=O)C1CN(C(=O)c2cnn(Cc3ccccc3)c2)CC12CN(C(=O)[C@H]1CC1(C)C)C2)C(=O)NCC#CCN (stereo partly drawn) [I-28]
2. CNC(=O)[C@@H](NC(=O)[C@H]1CN(C(=O)c2cnn(Cc3ccccc3)c2)CC12CN(C(=O)C1CC1(C)C)C2)[C@@H](C)O (stereo partly drawn) [I-88B]
3. COC(=O)c1ccc(C2CCN(C(=O)[C@@H](NC(=O)[C@@H]3CN(C(=O)c4cnn(Cc5ccccc5)c4)CC34CN(C(=O)[C@H]3CC3(C)C)C4)[C@@H](C)OCC3CCCCC3)CC2)cc1 [I-147]
4. CCC(CC)C(=O)N1CC2(CN(C(=O)c3cnn(Cc4ccccc4)c3)C[C@H]2C(=O)N[C@H](C(=O)NC)[C@@H](C)OCc2ccccc2)C1 [I-74A]
5. CNC(=O)[C@@H](NC(=O)[C@H]1CN(Cc2cn[nH]c2)CC12CN(C(=O)[C@H]1CC1(C)C)C2)[C@@H](C)OCc1ccccc1 [I-50B]

100 to 1000 nM
> 10000 nM
≤ 10 nM
1000 to 10000 nM
> 10000 nM

For each entry beneath this line, provide reported IC50.
1. CNC(=O)[C@@H](NC(=O)[C@@H]1CN(C(=O)Cc2cnn(Cc3ccccc3)c2)CC12CN(C(=O)[C@H]1CC1(C)C)C2)[C@@H](C)OCc1ccccc1 [I-373]
2. CC1(C)C[C@@H]1C(=O)N1CC2(CN(C(=O)c3cnn(Cc4ccccc4)c3)C[C@@H]2C(=O)Nc2ccc(Cc3ccccc3)cc2)C1 [I-84B]
3. CNC(=O)[C@@H](NC(=O)[C@H]1CN(C(=O)c2sc(COC)nc2C)CC12CN(C(=O)[C@H]1CC1(C)C)C2)[C@@H](C)OCC1CCCCC1 [I-162B]
4. CC1(C)C[C@@H]1C(=O)N1CC2(CN(C(=O)c3cnn(Cc4ccccc4)c3)C[C@H]2C(=O)N[C@H]2CCc3cc(Cl)ccc32)C1 [I-133A]

> 10000 nM
1000 to 10000 nM
> 10000 nM
1000 to 10000 nM

Provide the reported IC50 of each entry below, same order.
1. CNC(=O)[C@@H](NC(=O)[C@H]1CN(C(=O)c2cnn(CC3CCN(C)CC3)c2)CC12CN(C(=O)[C@H]1CC1(C)C)C2)[C@@H](C)OCc1ccccc1 [I-23B]
2. C[C@@H](OCC1CCCCC1)[C@@H](COC1CCCCC1)NC(=O)[C@@H]1CN(C(=O)c2cncs2)CC12CN(C(=O)[C@H]1CC1(C)C)C2 [I-308]

1: > 10000 nM; 2: ≤ 10 nM
